Target or test system: T1, human IL-23 (human, UniProt Q9NPF7 20-189; P29460 23-328)
T1 construct: Bought recombinant heterodimeric cytokine (eBioscience 34-8239-85 for panning; R&D Systems for the splenocyte assay); also called hIL-23; hIL23
T1 sequence (looked up) 1: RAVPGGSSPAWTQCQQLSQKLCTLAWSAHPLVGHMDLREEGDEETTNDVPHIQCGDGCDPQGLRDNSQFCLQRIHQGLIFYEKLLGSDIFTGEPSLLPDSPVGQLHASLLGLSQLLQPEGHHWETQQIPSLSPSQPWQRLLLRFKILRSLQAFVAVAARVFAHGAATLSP
T1 sequence (looked up) 2: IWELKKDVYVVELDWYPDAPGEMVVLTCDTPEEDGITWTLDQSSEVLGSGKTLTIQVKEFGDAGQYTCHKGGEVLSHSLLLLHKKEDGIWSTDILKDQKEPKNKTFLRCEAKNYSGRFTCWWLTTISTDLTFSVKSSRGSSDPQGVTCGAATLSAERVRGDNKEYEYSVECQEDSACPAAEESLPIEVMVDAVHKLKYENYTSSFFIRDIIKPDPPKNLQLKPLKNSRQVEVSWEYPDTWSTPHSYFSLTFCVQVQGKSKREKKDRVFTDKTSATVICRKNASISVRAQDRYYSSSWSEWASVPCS
Assay: equilibrium ELISA, soluble polypeptide
Quantity: pKd
# reply with the number alone; pKd is -log10 of concentration in mol/L

Examples from the recorded data:
// lookup pKd for MA14 (designed binder) MSIEQIQTEIASIQEVIAGIQKYIYSMTGGSGGSGGMSIEEIQKQIAAIQCQIAAIQKQIYAMTGSGGGGSGMSIEEIQKQIAAIQNQIVAIYKQIMAMGG
8.74

For MA12 (designed binder, also called MAl2) MSIQEIQKEIAQIQAVIAGIQKYIYTMTGGSGGSGGGGSGGSGGMSIEEIQKQIAAIQCQIAAIQKQIYAMTGSGGGGSGGSGGGGSGMSIEEIQKQIAAIQEQILAIYKQIMAMVT , what is its reported pKd?
9.96

Now examine the next entry.
Which pKd is reported for this binder? MB76 (designed binder) MSIQQIQKEITQIQEVIAAIQKYIYRMTGGSGGSDGMSIEEIQKQIAAIQCQIAAIQKQIYAMTGSGGGGSGMSIEEIQKQIAAIQGQILAIYKQIMAMSL
8.74
